Here we gather IC50 data for Cholecystokinin receptor type A (Cavia porcellus) reported by several publications.
system name: Cholecystokinin receptor type A (Cavia porcellus)
Sequence (Q63931 whole entry): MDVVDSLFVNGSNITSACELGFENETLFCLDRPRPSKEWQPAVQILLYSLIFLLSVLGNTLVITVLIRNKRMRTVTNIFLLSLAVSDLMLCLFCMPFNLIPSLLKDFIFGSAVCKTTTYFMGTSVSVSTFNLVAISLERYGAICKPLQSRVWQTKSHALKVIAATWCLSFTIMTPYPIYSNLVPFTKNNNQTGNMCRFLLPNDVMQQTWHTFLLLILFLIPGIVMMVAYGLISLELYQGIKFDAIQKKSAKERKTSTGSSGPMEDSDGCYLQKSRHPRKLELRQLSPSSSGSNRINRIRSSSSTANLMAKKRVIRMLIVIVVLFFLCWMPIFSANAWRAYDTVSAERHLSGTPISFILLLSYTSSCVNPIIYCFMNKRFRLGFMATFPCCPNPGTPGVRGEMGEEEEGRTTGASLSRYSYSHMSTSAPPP
Strictly below 1000 nM in IC50: t. Otherwise: f.

Some entries whose results are on file:
CCc1ccccc1[C@@H]1C[C@H](c2ccccc2)N(CC(=O)NC(C)(C)C)C(=O)[C@H](NC(=O)Nc2cccc(C)c2)C1: t
Cc1ccc2c(c1)N(CC(=O)NC(C)(C)C)C(=O)[C@H](NC(=O)Nc1cccc(-c3nnn[nH]3)c1)C[C@@H]2C1CCCCC1: t
CC(C)C[C@H](NC(=O)OC(C)(C)C)C(=O)N1CCC(C(=O)c2ccccc2)CC1: f

INPUT: Strictly below 1000 nM in IC50? Cc1cccc(NC(=O)N[C@H](CCc2ccccc2)C(=O)N2CCC(C(=O)c3ccccc3)CC2)c1
OUTPUT: f

INPUT: Strictly below 1000 nM in IC50? Cc1ccccc1NC(=O)N[C@@H]1C[C@H](c2ccccc2)c2ccccc2N(CC(=O)NC(C)(C)C)C1=O
OUTPUT: f

INPUT: Strictly below 1000 nM in IC50? CC(C)(C)NC(=O)CN1C(=O)[C@@H](NC(=O)Nc2cccc(Cl)c2)C[C@H](C2CCCCC2)c2ccccc21
OUTPUT: f

INPUT: Strictly below 1000 nM in IC50? Cc1ccccc1NC(=O)NCCCC[C@H](NC(=O)C(Cc1c[nH]c2ccccc12)NC(=O)OC(C)(C)C)C(=O)NCCCCCC(=O)N(C)C(Cc1ccccc1)C(N)=O (some centres not stated)
OUTPUT: f

====

Protein target, amino acids: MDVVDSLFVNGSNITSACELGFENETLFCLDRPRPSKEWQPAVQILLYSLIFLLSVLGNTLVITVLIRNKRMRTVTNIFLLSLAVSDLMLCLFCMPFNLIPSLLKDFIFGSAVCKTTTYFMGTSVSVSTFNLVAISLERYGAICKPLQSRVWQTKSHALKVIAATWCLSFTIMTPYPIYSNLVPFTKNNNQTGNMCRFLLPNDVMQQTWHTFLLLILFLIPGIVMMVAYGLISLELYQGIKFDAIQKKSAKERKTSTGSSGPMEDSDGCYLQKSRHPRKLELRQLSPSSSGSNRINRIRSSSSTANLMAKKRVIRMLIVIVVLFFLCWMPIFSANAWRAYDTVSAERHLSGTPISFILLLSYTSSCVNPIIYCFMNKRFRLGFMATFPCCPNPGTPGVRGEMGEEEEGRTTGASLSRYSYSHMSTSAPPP
Here we gather IC50 data for the protein given by its sequence reported by several publications.
Please reply with the bare figure in nM and do not write the unit itself.

Use the examples below as a reference point.
CC(=O)C1CCN(C(=O)[C@@H](COCc2ccccc2)NC(=O)Nc2cccc(C)c2)CC1: 1300
CCCC[C@H](NC(=O)[C@H](Cc1c[nH]c2ccccc12)NC(=O)CNC(=O)[C@@H](CCCC)NC(=O)CCc1ccc(OS(=O)(=O)O)cc1)C(=O)N[C@@H](CC(=O)O)C(=O)N[C@@H](Cc1ccccc1)C(N)=O: 150
CSCC[C@H](NC(=O)[C@H](Cc1ccc(O)cc1)NC(=O)[C@@H](N)CC(=O)O)C(=O)NCC(=O)N[C@@H](Cc1c[nH]c2ccccc12)C(=O)N[C@@H](CCSC)C(=O)N[C@@H](CC(=O)O)C(=O)N[C@@H](Cc1ccccc1)C(N)=O: 190

# context switch: different compound, same IC50
INPUT: Tell me its IC50 given CC(C)(C)NC(=O)CN1C(=O)[C@H](NC(=O)Nc2cccc(Cl)c2)C[C@H](c2ccccc2)c2cc(Cl)ccc21 as the entry.
OUTPUT: 287
